Biological target: cloned hERG potassium channels expressed in human embryonic kidney cells (HEK293) (Homo sapiens)
Sequence (Q12809 whole entry): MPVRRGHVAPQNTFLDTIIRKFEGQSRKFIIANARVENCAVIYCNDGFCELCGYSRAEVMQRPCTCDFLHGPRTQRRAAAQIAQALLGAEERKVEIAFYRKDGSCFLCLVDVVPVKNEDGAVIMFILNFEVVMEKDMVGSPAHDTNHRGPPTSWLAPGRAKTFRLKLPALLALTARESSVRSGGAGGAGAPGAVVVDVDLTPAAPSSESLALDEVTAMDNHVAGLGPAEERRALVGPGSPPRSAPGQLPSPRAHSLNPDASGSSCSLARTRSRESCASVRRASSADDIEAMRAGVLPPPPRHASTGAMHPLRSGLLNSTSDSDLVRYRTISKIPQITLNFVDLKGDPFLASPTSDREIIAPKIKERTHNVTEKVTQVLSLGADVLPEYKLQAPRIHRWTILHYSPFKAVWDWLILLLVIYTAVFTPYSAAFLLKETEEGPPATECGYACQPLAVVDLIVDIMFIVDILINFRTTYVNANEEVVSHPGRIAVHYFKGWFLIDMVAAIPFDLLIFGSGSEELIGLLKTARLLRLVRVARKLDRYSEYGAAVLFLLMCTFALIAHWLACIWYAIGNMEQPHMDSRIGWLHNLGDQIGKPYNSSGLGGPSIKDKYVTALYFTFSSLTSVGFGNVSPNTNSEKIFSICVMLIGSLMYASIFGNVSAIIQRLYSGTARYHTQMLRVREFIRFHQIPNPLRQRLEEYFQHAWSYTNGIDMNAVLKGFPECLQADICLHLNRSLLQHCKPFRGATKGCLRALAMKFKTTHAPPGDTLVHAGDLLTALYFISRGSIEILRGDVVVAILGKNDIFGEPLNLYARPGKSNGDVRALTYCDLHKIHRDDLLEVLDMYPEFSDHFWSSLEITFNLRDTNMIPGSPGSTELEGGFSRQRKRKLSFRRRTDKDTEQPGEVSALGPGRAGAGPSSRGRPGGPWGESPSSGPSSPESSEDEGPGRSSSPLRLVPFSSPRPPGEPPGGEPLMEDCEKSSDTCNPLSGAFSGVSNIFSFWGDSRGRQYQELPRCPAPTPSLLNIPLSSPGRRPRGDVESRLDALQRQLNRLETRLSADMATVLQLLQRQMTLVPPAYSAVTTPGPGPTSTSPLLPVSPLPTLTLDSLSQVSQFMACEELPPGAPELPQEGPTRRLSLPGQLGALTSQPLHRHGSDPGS
Assay: FASTPatch hERG Assay (Example F)
Settings: HEK293, QPatch HT, room temperature
Procedure: This assay was used to measure the effects of Compound 1, Compound 2, and Compound 3 on cloned hERG potassium channels expressed in human embryonic kidney cells (HEK293). […] The test article was evaluated at 0.3, 1, 3, 10, 30 and 100 μM with each concentration tested in three or more cells (n≥3). […]
pIC50: −log10 of the molar value.
MEASURE_NAME: pIC50

INSERT INTO measurements (sample_smiles, measure_name, assay_result) VALUES
  ('COCCN1C[C@@H](NC(=O)Nc2c(C)c(-c3cnc(C)nc3)nn2-c2ccccc2)[C@H](c2ccc(F)c(F)c2)C1', 'pIC50', 5.16),
  ('COCCN1C[C@@H](NC(=O)Nc2c(C)c(-c3cnc(C)nc3)nn2-c2ccccc2)[C@H](c2cccc(F)c2)C1', 'pIC50', 4.70);

====

Assay: IV clearance, 1 mg/kg IV, monkey
Format: in vivo
Details: plasma, 1 mg/kg IV
MEASURE_NAME: clearance (mL/min/kg)

INSERT INTO measurements (sample_smiles, assay_result) VALUES
  ('COCCN1C[C@@H](NC(=O)Nc2c(C)c(-c3cnc(C)nc3)nn2-c2ccccc2)[C@H](c2ccc(F)c(F)c2)C1', 18),
  ('COCCN1C[C@@H](NC(=O)Nc2c(C)c(-c3cnc(C)nc3)nn2-c2ccccc2)[C@H](c2cccc(F)c2)C1', 20),
  ('COCCN1C[C@@H](NC(=O)Nc2c(C)c(-c3cnn(C)c3)nn2-c2ccccc2)[C@H](c2ccc(F)cc2)C1', 38);

====

Assay: Liver microsomal clearance, mouse
Assay type: in vitro ADME
Conditions: pH 7.4; Mouse liver microsomes; 1 mg/mL; 20 minutes
MEASURE_NAME: CLhep predicted at 1 μM (mL/min/kg)

INSERT INTO results (sample_smiles, assay_result) VALUES
  ('COCCN1C[C@@H](NC(=O)Nc2c(C)c(-c3cnn(C)c3)nn2-c2ccccc2)[C@H](c2ccc(F)cc2)C1', 60),
  ('COCCN1C[C@@H](NC(=O)Nc2c(C)c(-c3cnc(C)nc3)nn2-c2ccccc2)[C@H](c2cccc(F)c2)C1', 50),
  ('COCCN1C[C@@H](NC(=O)Nc2c(C)c(-c3cnc(C)nc3)nn2-c2ccccc2)[C@H](c2ccc(F)c(F)c2)C1', 57);

====

Assay: Liver microsomal clearance, dog
Format: in vitro ADME
Details: pH 7.4; Dog liver microsomes; 1 mg/mL; 20 minutes
Reported CLhep predicted at 1 μM values for a set of compounds
MEASURE_NAME: CLhep predicted at 1 μM

INSERT INTO assay_data (sample_smiles, assay_result) VALUES
  ('COCCN1C[C@@H](NC(=O)Nc2c(C)c(-c3cnc(C)nc3)nn2-c2ccccc2)[C@H](c2cccc(F)c2)C1', '24 mL/min/kg'),
  ('COCCN1C[C@@H](NC(=O)Nc2c(C)c(-c3cnn(C)c3)nn2-c2ccccc2)[C@H](c2ccc(F)cc2)C1', '23 mL/min/kg'),
  ('COCCN1C[C@@H](NC(=O)Nc2c(C)c(-c3cnc(C)nc3)nn2-c2ccccc2)[C@H](c2ccc(F)c(F)c2)C1', '26 mL/min/kg');

====

Items are presented alongside their recorded clearance.
Assay: IV clearance, 1 mg/kg IV, rat
Assay type: in vivo
Details: plasma, 1 mg/kg IV
MEASURE_NAME: clearance

INSERT INTO measurements (sample_smiles, assay_result) VALUES
  ('COCCN1C[C@@H](NC(=O)Nc2c(C)c(-c3cnc(C)nc3)nn2-c2ccccc2)[C@H](c2cccc(F)c2)C1', '0.9 L/h/kg'),
  ('COCCN1C[C@@H](NC(=O)Nc2c(C)c(-c3cnc(C)nc3)nn2-c2ccccc2)[C@H](c2ccc(F)c(F)c2)C1', '1.74 L/h/kg'),
  ('COCCN1C[C@@H](NC(=O)Nc2c(C)c(-c3cnn(C)c3)nn2-c2ccccc2)[C@H](c2ccc(F)cc2)C1', '1.56 L/h/kg');
